Assay Text: small molecules captured by biotinylated probe aFGF10 – biochemical, small-molecule microarray, fluorescence 635/667, stem cell growth factor project, primary screen (AID 1071);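 note: score merges 667 nm spot intensity and signal to noise from triplicate slides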
Assay Conditions: higher = more signal
Give Fulfilled when the value for composite z-score is at least 0.2. Give Not fulfilled when it is less.

Answered examples (4):
- Compound: "COC(=O)C/C=C/C[C@]1(O)C(=O)N(C)c2ccccc21"
  Assigned Class: "Not fulfilled"
- Compound: "C=C[C@H]1C(C(=O)OCC)=CC[C@@H](c2ccccc2)N1S(=O)(=O)c1ccc(C)cc1"
  Assigned Class: "Fulfilled"
- Compound: "COC(=O)[C@@]1(Cc2ccc(OC)cc2)[C@H]2c3cc(C(=O)N(C)C)n(Cc4ccc(OC(F)(F)F)cc4)c3C[C@H]2CN1C(=O)c1ccccc1"
  Assigned Class: "Not fulfilled"
- Compound: "Cc1ccc(S[C@]2(C(=O)NCCN3CCOCC3)CC(=O)N(Cc3ccccc3Cl)[C@@H]2c2ccc(CO)cc2I)cc1"
  Assigned Class: "Not fulfilled"

Form field: composite z-score at least 0.2? Entry: CS(=O)(=O)CCOC(=O)C1=CC(CCCO)=CC(c2ccc(CN3CCCC3)cc2)N(Cc2sc3ccccc3c2Cl)C=C1C(=O)OCCS(C)(=O)=O (configuration not stated)
Fulfilled

Form field: composite z-score at least 0.2? Entry: C=C(/C(=C/C[C@H](OC(C)=O)c1ccc(CO)o1)c1cnc2ccccc2c1)C(C)C
Fulfilled
